Where these numbers come from: the supplement of paper PMC10126150

Test system: ATP;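 further: ATP exposure 15 min at 22 °C before imaging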
Assay: switch fluorescence ratio, 500 uM ATP over buffer (Cy3 cluster intensity, sum of 5 cycles each) (fold (ratio)); higher = stronger signal-on switching upon ATP binding; sequences stand for … in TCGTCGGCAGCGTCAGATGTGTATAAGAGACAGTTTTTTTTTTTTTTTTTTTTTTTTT…TC
Details: aptamer strand: ATP DNA aptamer (quencher-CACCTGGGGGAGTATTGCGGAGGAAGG + anchor), 100 nM annealed; ATP concentration: 500 uM
Each item that follows carries a reported switch fluorescence ratio.
OUTCOME_MEASURE: switch fluorescence ratio

{"SEQ": "ATAGCTACGC", "SYSTEM_NAME": "ATP", "OUTCOME_MEASURE": "switch fluorescence ratio", "VALUE_MEASURED": 1.03}
{"SEQ": "AATCTTCATG", "SYSTEM_NAME": "ATP", "OUTCOME_MEASURE": "switch fluorescence ratio", "VALUE_MEASURED": 0.997}
{"SEQ": "ATCGTGTAGG", "SYSTEM_NAME": "ATP", "OUTCOME_MEASURE": "switch fluorescence ratio", "VALUE_MEASURED": 0.99}
{"SEQ": "CATATGCGTC", "SYSTEM_NAME": "ATP", "OUTCOME_MEASURE": "switch fluorescence ratio", "VALUE_MEASURED": 1.02}
{"SEQ": "TATCGGGGGA", "SYSTEM_NAME": "ATP", "OUTCOME_MEASURE": "switch fluorescence ratio", "VALUE_MEASURED": 0.985}
{"SEQ": "TCGGCGGCGG", "SYSTEM_NAME": "ATP", "OUTCOME_MEASURE": "switch fluorescence ratio", "VALUE_MEASURED": 0.974}
